test system: S. aureus Col8A(Meth^S)(lac^-); assay: In vitro MIC, agar dilution; format: cell-based; conditions: Staphylococcus aureus; S. aureus Col8A(Meth^S)(lac^-); read-out: minimum inhibitory concentration (MIC)
Counter-ions that a name gives are not always drawn.
Field: MIC. Provide a value for each of the compounds that follow.
Answers are plain numbers, in µg/mL.

Worked cases, MIC given:
# compound, target system, MIC [µg/mL]
data = [
    ("NCCSCc1nnsc1SC1=C(C(=O)O)N2C(=O)[C@@H](NC(=O)/C(=N\\O)c3csc(N)n3)[C@H]2SC1 [Cmpd 38, trifluoroacetic acid salt]", "S. aureus Col8A(Meth^S)(lac^-)", 0.13),
    ("N=C(N)SCc1ncsc1SC1=C(C(=O)O)N2C(=O)[C@@H](NC(=O)/C(=N\\O)c3csc(N)n3)[C@H]2SC1 [Cmpd 7, trifluoroacetic acid salt]", "S. aureus Col8A(Meth^S)(lac^-)", 0.5),
    ("CN(C)C(=O)[C@@H](N)CSCc1cnccc1SC1=C(C(=O)O)N2C(=O)[C@@H](NC(=O)/C(=N\\O)c3nc(N)sc3Cl)[C@H]2SC1 [Cmpd 58, trifluoroacetic acid salt]", "S. aureus Col8A(Meth^S)(lac^-)", 0.5),
    ("O=C(Cc1ccccc1)N[C@@H]1C(=O)N2C(C(=O)O)=C(Sc3snnc3CSC3CCNC3)CS[C@H]12 (stereo partly shown) [Cmpd 6, trifluoroacetic acid salt]", "S. aureus Col8A(Meth^S)(lac^-)", 0.13),
    ("NCCSCc1cnccc1SC1=C(C(=O)O)N2C(=O)[C@@H](NC(=O)/C(=N\\O)c3nc(N)sc3Br)[C@H]2SC1.O=C(O)C(F)(F)F", "S. aureus Col8A(Meth^S)(lac^-)", 0.25),
]

Proceeding to the next compound to report its MIC.
[ask] For NCCSCc1cnccc1SC1=C(C(=O)O)N2C(=O)[C@@H](NC(=O)Cc3ccccc3)[C@H]2SC1.O=C(O)C(F)(F)F , what is its reported MIC?
[reply] 0.13

The reported measurements were obtained from patent US6087355A.
